Hello, the source for this data is patent US7718671B2, in case you need it.

- Tested on: Hepatitis C replicon
- protocol: HCV replicon assay (NPT level by captured ELISA in replicon-containing cells)
- Assay type: cell-based
- assay_context: Hepatitis C virus, 72 h; Huh-7 HCV replicon-containing cells, three days incubation
Hi there, I'd appreciate the recorded EC50 for every entry that follows.

Task: Please give measured EC50 of the following entry: NC(=S)NCc1ccc(Oc2ccccc2)cc1 [Compound 55, 1-(4-phenoxybenzyl)thiourea]
Result: < 1000 nM

Task: Please give measured EC50 of the following entry: COc1cccc(Cc2cccc(NC(N)=S)c2)c1 [Compound 35, 1-(3-(3-methoxybenzyl)phenyl) thiourea]
Result: < 1000 nM

Task: Please give measured EC50 of the following entry: C[C@H](Oc1cccc(NC(N)=S)c1)c1ccccc1 [Compound 16]
Result: < 1000 nM

Task: Please give measured EC50 of the following entry: NC(=S)NCc1ccc(-c2ccccc2)cc1 [Compound 57, 1-(4-phenylbenzyl)thiourea]
Result: < 1000 nM

Task: Please give measured EC50 of the following entry: CCC[C@H]1CC[C@H](c2ccc(NC(N)=S)cc2)CC1 [Compound 31]
Result: < 1000 nM

Task: Please give measured EC50 of the following entry: NC(=S)Nc1ccc(-c2ccccc2)cc1 [Compound 23, 1-(4-(phenyl)phenyl)thiourea]
Result: < 1000 nM

Task: Please give measured EC50 of the following entry: NC(=S)Nc1cccc(Oc2ccccc2)c1 [Compound 3, 1-(3-Phenoxy-phenyl)-thiourea]
Result: < 1000 nM

Task: Please give measured EC50 of the following entry: NC(=S)Nc1ccc(N2CCCCC2)c(C(F)(F)F)c1 [Compound 32]
Result: < 1000 nM

Task: Please give measured EC50 of the following entry: CCCCCc1ccc(NC(N)=S)cc1 [Compound 7, 1-(4-Pentyl-phenyl)-thiourea]
Result: < 1000 nM

Task: Please give measured EC50 of the following entry: NC(=S)Nc1ccc(N2CCC(c3ccccc3)CC2)c(F)c1 [Compound 54]
Result: < 1000 nM

Task: Please give measured EC50 of the following entry: NC(=S)Nc1cccc(NCC2CCCCC2)c1 [Compound 52]
Result: < 1000 nM

Task: Please give measured EC50 of the following entry: CCCCCOc1ccc(NC(N)=S)cc1 [Compound 6, 1-(4-Pentyloxy-phenyl)-thiourea]
Result: < 1000 nM

Task: Please give measured EC50 of the following entry: CCCCC#Cc1ccc(NC(N)=S)cc1 [Compound 33, 1-(4-(hex-1-ynyl)phenyl)thiourea]
Result: < 1000 nM

Task: Please give measured EC50 of the following entry: NC(=S)Nc1ccc2c(c1)OC(c1ccccc1)O2 (stereo not drawn) [Compound 19]
Result: < 1000 nM

Task: Please give measured EC50 of the following entry: NC(=S)Nc1cccc(OCCc2ccccc2)c1 [Compound 21, 1-(3-(phenethyloxy)phenyl)thiourea]
Result: < 1000 nM

Task: Please give measured EC50 of the following entry: NC(=S)Nc1ccc(N2CCC3CCCCC3C2)cc1 (stereo not drawn) [Compound 26]
Result: < 1000 nM

Task: Please give measured EC50 of the following entry: CCCCCCCOc1ccc(NC(N)=S)cc1C(F)(F)F [Compound 39]
Result: < 1000 nM

Task: Please give measured EC50 of the following entry: NC(=S)Nc1cccc(OCc2cccc(C(F)(F)F)c2)c1 [Compound 53]
Result: < 1000 nM
